# Lookup of reported IC50 keyed by entry
System: M. tuberculosis H37Rv growth inhibition
procedure.text: M. tuberculosis H37Rv growth inhibitors, H37Rv strain (AID 1626)

## Task Report IC50, nothing else, for this molecule: N#CC1=C(N)NC(SCC(=O)c2ccccc2)=C(C#N)C12CCCC2
## Result 7.73 µM

---

Test system: M. tuberculosis H37Rv growth inhibition
procedure.text: M. tuberculosis H37Rv growth inhibitors, H37Rv strain (AID 1626)
cond: measured here: IC90 against H37Rv
# Lookup of reported IC90 keyed by entry

Known results for molecules:
- molecule: "CCOC(=O)c1ccc(NC(=O)CSc2nnc(COc3ccccc3OC)n2C)cc1"
  IC90: "> 100 µM"
- molecule: "O=C(Nc1nnc(-c2ccc3c(c2)OCCO3)o1)C1CCCCC1"
  IC90: "> 100 µM"
- molecule: "O=C(CSc1nc2ccc(Cl)cc2[nH]1)Nc1ccc2c(c1)CCC2"
  IC90: "> 100 µM"
- molecule: "Cc1ccc(Oc2nc(CN3CCOCC3)nc3sc4c(c23)CCC(C)C4)cc1 (stereo unspecified)"
  IC90: "22.4 µM"

## Task Report IC90, nothing else, for this molecule: Cn1c(O)c(C=Nc2ccc3c(c2)CCC3)c(=O)n(C)c1=O
## Result > 100 µM

## Task Report IC90, nothing else, for this molecule: Cc1ccc(C(=O)CC(=O)COc2ccc(Cl)cc2)cc1
## Result > 100 µM

## Task Report IC90, nothing else, for this molecule: CN1CCN(c2ccccc2NC(=O)c2ccc(-c3ccc(Cl)cc3Cl)o2)CC1
## Result 82.8 µM

## Task Report IC90, nothing else, for this molecule: c1ccc2c(-c3nc(C4CCCCC4)no3)cc(-c3ccncc3)nc2c1
## Result 10.9 µM

## Task Report IC90, nothing else, for this molecule: CCOC(=O)c1ccc(NC(=O)CCc2nc(-c3ccc(Cl)cc3)no2)cc1
## Result 18.4 µM

## Task Report IC90, nothing else, for this molecule: CCOC(=O)C1(CCc2ccccc2)CCN(Cc2ccccn2)CC1
## Result > 100 µM

## Task Report IC90, nothing else, for this molecule: Cc1ccc(NC(=O)/C=C/c2ccc([N+](=O)[O-])s2)cc1
## Result > 100 µM

---

System: M. tuberculosis H37Rv growth inhibition
procedure.text: M. tuberculosis H37Rv growth inhibitors, H37Rv strain (AID 1626)
cond: measured here: IC90 against H37Rv
# Lookup of reported IC90 keyed by entry
Value expressed in µM; do not type the unit.

Known results for molecules:
- molecule: "N#Cc1c(SCC(N)=O)nsc1SCc1ccccc1Cl"
  measurement.target: "M. tuberculosis H37Rv growth inhibition"
  IC90 / µM: 14.5
- molecule: "CCN1CCN(Cc2ccc(NC(=O)c3cc(NC(=O)c4cc(-c5ccc(OC)cc5)n[nH]4)cc(OC)c3)cc2C(F)(F)F)CC1"
  measurement.target: "M. tuberculosis H37Rv growth inhibition"
  IC90 / µM: 5.93
- molecule: "O=C(c1nnsc1S(=O)c1ccc(Cl)cc1)N1CCOCC1 (stereo unspecified)"
  measurement.target: "M. tuberculosis H37Rv growth inhibition"
  IC90 / µM: 10.8
- molecule: "COC(=O)c1ccccc1Sc1ncnc2onc(C)c12"
  measurement.target: "M. tuberculosis H37Rv growth inhibition"
  IC90 / µM: 30.7

## Task Report IC90, nothing else, for this molecule: O=C(CSc1nnc(-c2cccs2)o1)OC1CCCCC1
## Result 7.65

## Task Report IC90, nothing else, for this molecule: CC(C)(C)c1nn(-c2ccccc2)c2[nH]c(=O)c(CNCc3ccc4c(c3)OCO4)cc12
## Result 13.8
